- Tgt: Melanocortin receptor 4 (Homo sapiens, UniProt P32245, D122A)
- Sequence (P32245 whole entry D122A): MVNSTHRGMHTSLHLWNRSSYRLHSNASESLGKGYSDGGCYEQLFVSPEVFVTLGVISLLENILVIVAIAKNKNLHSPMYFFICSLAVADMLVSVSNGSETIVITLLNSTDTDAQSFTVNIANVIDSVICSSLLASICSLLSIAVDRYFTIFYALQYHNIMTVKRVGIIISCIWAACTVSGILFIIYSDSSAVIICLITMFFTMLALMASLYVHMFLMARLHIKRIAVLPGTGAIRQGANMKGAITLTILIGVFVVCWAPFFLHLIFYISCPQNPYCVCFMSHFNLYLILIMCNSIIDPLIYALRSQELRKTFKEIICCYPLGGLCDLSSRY
- Assay Protocol: Binding affinity to human MC4 receptor Asp122Ala mutant
pKi: −log10 of the molar value.
Measured Parameter: pKi

# Molecule, pKi
data = [
    ("CNCC(=O)N[C@H](Cc1ccc(Cl)cc1Cl)C(=O)N1CCN(c2ccccc2C(=O)CC(C)C)CC1", 6.54),
]

P: CNCC(=O)N[C@H](Cc1ccc(Cl)cc1Cl)C(=O)N1CCN(c2ccccc2C(N)CC(C)C)CC1 (stereo partly drawn)
Q: CNCC(=O)N[C@H](Cc1ccc(Cl)cc1Cl)C(=O)N1CCN(c2ccccc2C(O)CC(C)C)CC1 (stereo partly drawn)
I would appreciate it if you could say which entry, P or Q , has the lower pKi value. // output: label of the selected item
Q
